- Tested on: Phospho-Rb Ser807/811 in OVCAR3 cells
- measurement_description: OVCAR3 Phospho-Rb Ser807/811 HTRF assay
- Assay type: cell-based
- condition_summary: Homo sapiens, OVCAR-3, 1 h, OVCAR3 cells, Phospho-Rb Ser807/811 HTRF, 1 hour incubation; read-out: pRb-OVCAR3 IC50
property_measured: IC50 (nM)

Solved cases (6 shown):
compound | value_units | IC50
COc1cc(O)c(C=O)c(OCC(=O)Nc2cc([C@H]3C[C@@H](OC(=O)N4C5COCC4C5)C3)[nH]n2)c1 | nM | 79.8
CC(C)NC(=O)O[C@@H]1CC[C@H](c2cc(Nc3cc(C#Cc4cccc(O)c4C=O)ccn3)n[nH]2)C1 | nM | 4970
COc1cc(O)c(C=O)c(OCC(=O)Nc2cc([C@H]3CC[C@@H](OC(=O)Nc4ccccc4)C3)[nH]n2)c1 | nM | 301
COc1cc(O)c(C=O)c(OCC(=O)Nc2cc([C@H]3CC[C@@H](OC(=O)N(C)N(C)C)C3)[nH]n2)c1 | nM | 132
COc1cc(O)c(C=O)c(OCC(=O)Nc2cc([C@H]3CC[C@@H](OC(=O)N4CCC[C@@H]4C)C3)[nH]n2)c1 | nM | 25.4
CC1(NC(=O)O[C@@H]2CC[C@H](c3cc(NC(=O)COc4cccc(O)c4C=O)n[nH]3)C2)CCC1 | nM | 83.3

1 = COc1cc(O)c(C=O)c2c1CC(C(=O)Nc1cc([C@H]3CC[C@@H](OC(=O)N(C)N(C)C)C3)n[nH]1)C2 (single isomer, unassigned)
2 = CC(C)NC(=O)O[C@@H]1CC[C@H](c2cc(NC(=O)COc3cc(F)cc(O)c3C=O)n[nH]2)C1
[ask] Look at 1 and 2 . Which one has the lower recorded IC50 number? State your choice using its label.
[reply] 1
(1: 29.2 nM, 2: 1950 nM)

P = CC(C)NC(=O)O[C@@H]1CC[C@H](c2cc(NC(=O)c3cc(C=O)c4[nH]ncc4c3)n[nH]2)C1
Q = CC(C)NC(=O)O[C@@H]1CC[C@H](c2cc(NC(=O)C3C[C@H]3c3cccc(O)c3C=O)n[nH]2)C1 (stereo in doubt)
[ask] Pick one: P or Q . Which one has the lower reported IC50? Refer to your chosen item by its label in the answer.
[reply] Q
(Q: 449 nM, P: 796 nM)
